quantity kind: melting point

Worked examples, 3 compounds total:
- compound: "Cc1nn(C2CCCC2C)c(N)c1C#N (stereo not given)"
  observed measurement: "158 to 159 °C"
- compound: "CCN(C(=O)C(C)(C)C)c1ccc(F)cc1F"
  observed measurement: "69 to 71 °C"
- compound: "COc1ccc(Nc2c(N)cc(C(=O)O)cc2S(N)(=O)=O)cc1"
  observed measurement: "214 °C"

Give measured melting point for every item shown.
1. Nc1ncc2c(=O)c(C(=O)ON3C(=O)CCC3=O)c[nH]c2n1
2. CS(=O)c1c(C(=O)c2cnoc2C2CC2)ccc(Cl)c1Cl (stereo not given)

Outgoing:
> 300 °C
110 to 112 °C

Give measured melting point for every item shown.
1. Cc1cc(C(O)(C(F)(F)F)C(F)(F)F)cc(C)c1OCC(N)=O
2. COCCOc1cccc2c(Nc3ccccc3C)c(C(=O)C(C)C)cnc12
3. CCCc1ccnc2c(=O)[nH]c(-c3cc(S(=O)(=O)N4CCC(C(=O)OCC)CC4)ccc3OCC)nc12
4. CCCCc1nc2c(N)nc3cccnc3c2n1CCNC(=O)C1CCC(=O)O1 (stereo not given)
5. CCOc1ccccc1OCCNC(C)Cc1ccc(OC)c(S(N)(=O)=O)c1 (stereo not given)

Outgoing:
1. 180 to 182 °C
2. 68 to 70 °C
3. 204 to 205 °C
4. 153 to 154 °C
5. 118 to 124 °C
